Let's look at some compounds and their measured GI50.
# Experiment description: Antiproliferative activity against human PANC1 cells after 48 hrs by SRB assay
# Format: functional
# Condition summary: PANC-1, 48 h

- Compound: "Cc1cc2c(cc1C)C(Cl)=C(c1nnc(Nc3ccccc3)s1)CCC2"
  Censoring operator: "="
  GI50 (µM): 3.67
- Compound: "ClC1=C(c2nnc(Nc3ccccc3)s2)CCCc2ccccc21"
  Censoring operator: "="
  GI50 (µM): 0.158
- Compound: "COC(=O)Nc1nc2cc(C(=O)c3cccs3)ccc2[nH]1 [NOCODAZOLE]"
  Censoring operator: "<"
  GI50 (µM): 0.01
- Compound: "Cc1cc2c(cc1C)C(Cl)=C(c1n[nH]c(=S)o1)CCC2"
  Censoring operator: "="
  GI50 (µM): 2.46
- Compound: "COc1cc2c(c(OC)c1OC)-c1ccc(OC)c(=O)cc1[C@@H](NC(C)=O)CC2 [COLCHICINE]"
  Censoring operator: "="
  GI50 (µM): 0.01

* * *

Each record here notes measured GI50.
# Experiment description: Antiproliferative activity against human PANC1 cells after 48 hrs by SRB assay
# Assay type: functional
# Condition summary: PANC-1, 48 h
Measured property: GI50 (nM)

- Chemical smiles: "COc1ccc(C[C@@H](O)c2cc(OC)c(OC)c(OC)c2)cc1O"
  Measured property: "GI50"
  Unit name: "nM"
  Censoring operator: "="
  Endpoint result: 20
- Chemical smiles: "O=C(NNC(=S)Nc1ccccc1)C1=C(Cl)c2ccccc2CCC1"
  Measured property: "GI50"
  Unit name: "nM"
  Censoring operator: "="
  Endpoint result: 5850
- Chemical smiles: "O=[N+]([O-])c1ccc(-c2nnc(C3=C(Cl)c4ccccc4CCC3)o2)cc1"
  Measured property: "GI50"
  Unit name: "nM"
  Censoring operator: "="
  Endpoint result: 3980
- Chemical smiles: "Cc1cc2c(cc1C)C(Cl)=C(C(=O)NNC(=S)Nc1ccccc1)CCC2"
  Measured property: "GI50"
  Unit name: "nM"
  Censoring operator: "="
  Endpoint result: 928
- Chemical smiles: "Cc1cc2c(cc1C)C(Cl)=C(c1nnc(-c3ccccc3)o1)CCC2"
  Measured property: "GI50"
  Unit name: "nM"
  Censoring operator: "="
  Endpoint result: 4120
- Chemical smiles: "COc1cc(-c2nnc(C3=C(Cl)c4ccccc4CCC3)o2)cc(OC)c1OC"
  Measured property: "GI50"
  Unit name: "nM"
  Censoring operator: "="
  Endpoint result: 729
- Chemical smiles: "Cc1cc2c(cc1C)C(Cl)=C(c1nnc(-c3ccc(F)cc3)o1)CCC2"
  Measured property: "GI50"
  Unit name: "nM"
  Censoring operator: "="
  Endpoint result: 520
- Chemical smiles: "Sc1nnc(C2=C(Cl)c3ccccc3CCC2)n1-c1ccccc1"
  Measured property: "GI50"
  Unit name: "nM"
  Censoring operator: "="
  Endpoint result: 3510
- Chemical smiles: "S=c1[nH]nc(C2=C(Cl)c3ccccc3CCC2)o1"
  Measured property: "GI50"
  Unit name: "nM"
  Censoring operator: "="
  Endpoint result: 3430
- Chemical smiles: "Cc1cc2c(cc1C)C(Cl)=C(c1nnc(-c3cccc(I)c3)o1)CCC2"
  Measured property: "GI50"
  Unit name: "nM"
  Censoring operator: "="
  Endpoint result: 4120
- Chemical smiles: "ClC1=C(c2nnc(-c3cccc(I)c3)o2)CCCc2ccccc21"
  Measured property: "GI50"
  Unit name: "nM"
  Censoring operator: "="
  Endpoint result: 2370
- Chemical smiles: "Cc1cc2c(cc1C)C(Cl)=C(c1nnc(S)n1-c1ccccc1)CCC2"
  Measured property: "GI50"
  Unit name: "nM"
  Censoring operator: "="
  Endpoint result: 2650
- Chemical smiles: "COc1cccc2c1C(=O)c1c(O)c3c(c(O)c1C2=O)C[C@@](O)(C(=O)CO)C[C@@H]3O[C@H]1C[C@H](N)[C@H](O)[C@H](C)O1"
  Measured property: "GI50"
  Unit name: "nM"
  Censoring operator: "<"
  Endpoint result: 10
- Chemical smiles: "Cc1cc2c(cc1C)C(Cl)=C(c1nnc(-c3cccc(C(F)(F)F)c3)o1)CCC2"
  Measured property: "GI50"
  Unit name: "nM"
  Censoring operator: "="
  Endpoint result: 794

* * *

Recorded measurements of GI50, one per entry
# Test system: A549
# Experiment description: Antiproliferative activity against human A549 cells after 48 hrs by SRB assay
# Assay type: functional
# Condition summary: A549, 48 h
Measured property: GI50 (nM)

- Chemical smiles: "Sc1nnc(C2=C(Cl)c3ccccc3CCC2)n1-c1ccccc1"
  Measured property: "GI50"
  Censoring operator: "="
  Endpoint result: 3490
- Chemical smiles: "Cc1cc2c(cc1C)C(Cl)=C(c1nnc(-c3cccc(I)c3)o1)CCC2"
  Measured property: "GI50"
  Censoring operator: "="
  Endpoint result: 2780
- Chemical smiles: "Cc1cc2c(cc1C)C(Cl)=C(C(=O)NNC(=S)Nc1ccccc1)CCC2"
  Measured property: "GI50"
  Censoring operator: "="
  Endpoint result: 759
- Chemical smiles: "CC(=O)O[C@H]1C(=O)[C@@]2(C)[C@H]([C@H](OC(=O)c3ccccc3)[C@]3(O)C[C@H](OC(=O)[C@H](O)[C@@H](NC(=O)c4ccccc4)c4ccccc4)C(C)=C1C3(C)C)[C@]1(OC(C)=O)CO[C@@H]1C[C@@H]2O"
  Measured property: "GI50"
  Censoring operator: "<"
  Endpoint result: 10
- Chemical smiles: "Cc1cc2c(cc1C)C(Cl)=C(c1nnc(S)n1-c1ccccc1)CCC2"
  Measured property: "GI50"
  Censoring operator: "="
  Endpoint result: 1490
- Chemical smiles: "ClC1=C(c2nnc(Nc3ccccc3)s2)CCCc2ccccc21"
  Measured property: "GI50"
  Censoring operator: "="
  Endpoint result: 2350
- Chemical smiles: "COc1cccc2c1C(=O)c1c(O)c3c(c(O)c1C2=O)C[C@@](O)(C(=O)CO)C[C@@H]3O[C@H]1C[C@H](N)[C@H](O)[C@H](C)O1"
  Measured property: "GI50"
  Censoring operator: "<"
  Endpoint result: 10
- Chemical smiles: "S=c1[nH]nc(C2=C(Cl)c3ccccc3CCC2)o1"
  Measured property: "GI50"
  Censoring operator: "="
  Endpoint result: 4960

* * *

# Tested on: A549
# Experiment description: Antiproliferative activity against human A549 cells after 48 hrs by SRB assay
# Format: functional
# Condition summary: A549, 48 h
Measured property: log10(GI50) (log10 of the value in nM)

- Molecule: "COc1cc2c(c(OC)c1OC)-c1ccc(OC)c(=O)cc1[C@@H](NC(C)=O)CC2 [COLCHICINE]"
  Measured target: "A549"
  Endpoint result: 1.48
- Molecule: "COc1ccc([N+](=O)[O-])c(-c2nnc(C3=C(Cl)c4cc(C)c(C)cc4CCC3)o2)c1OC"
  Measured target: "A549"
  Endpoint result: 2.94
- Molecule: "COc1ccc([N+](=O)[O-])c(-c2nnc(C3=C(Cl)c4ccccc4CCC3)o2)c1OC"
  Measured target: "A549"
  Endpoint result: 3.73
- Molecule: "Cc1ccc(-c2nnc(C3=C(Cl)c4cc(C)c(C)cc4CCC3)o2)cc1"
  Measured target: "A549"
  Endpoint result: 3.39
- Molecule: "Cc1cc2c(cc1C)C(Cl)=C(c1nnc(-c3ccc(F)cc3)o1)CCC2"
  Measured target: "A549"
  Endpoint result: 3.45
- Molecule: "Cc1cc2c(cc1C)C(Cl)=C(c1nnc(-c3ccccc3)o1)CCC2"
  Measured target: "A549"
  Endpoint result: 3.29
- Molecule: "COc1cc(-c2nnc(C3=C(Cl)c4ccccc4CCC3)o2)cc(OC)c1OC"
  Measured target: "A549"
  Endpoint result: 3.66
- Molecule: "Cc1cc2c(cc1C)C(Cl)=C(c1nnc(Nc3ccccc3)s1)CCC2"
  Measured target: "A549"
  Endpoint result: 3.68
- Molecule: "Cc1cc2c(cc1C)C(Cl)=C(c1nnc(-c3cccc(Cl)c3)o1)CCC2"
  Measured target: "A549"
  Endpoint result: 3.29
- Molecule: "O=[N+]([O-])c1ccc(-c2nnc(C3=C(Cl)c4ccccc4CCC3)o2)cc1"
  Measured target: "A549"
  Endpoint result: 3.42

* * *

# Experiment description: Antiproliferative activity against human PANC1 cells after 48 hrs by SRB assay
# Assay type: functional
# Condition summary: PANC-1, 48 h
Assign labels as follows, please: true for GI50 below 1 µM; false for GI50 equal to or exceeding 1 µM.

- Chemical smiles: "Cc1ccc(-c2nnc(C3=C(Cl)c4cc(C)c(C)cc4CCC3)o2)cc1"
  Cat: "false"
- Chemical smiles: "COc1ccc([N+](=O)[O-])c(-c2nnc(C3=C(Cl)c4ccccc4CCC3)o2)c1OC"
  Cat: "false"
- Chemical smiles: "COc1cc(-c2nnc(C3=C(Cl)c4cc(C)c(C)cc4CCC3)o2)cc(OC)c1OC"
  Cat: "false"
- Chemical smiles: "Cc1ccc(-c2nnc(C3=C(Cl)c4ccccc4CCC3)o2)cc1"
  Cat: "false"
- Chemical smiles: "CC(=O)O[C@H]1C(=O)[C@@]2(C)[C@H]([C@H](OC(=O)c3ccccc3)[C@]3(O)C[C@H](OC(=O)[C@H](O)[C@@H](NC(=O)c4ccccc4)c4ccccc4)C(C)=C1C3(C)C)[C@]1(OC(C)=O)CO[C@@H]1C[C@@H]2O"
  Cat: "true"
- Chemical smiles: "COc1ccc([N+](=O)[O-])c(-c2nnc(C3=C(Cl)c4cc(C)c(C)cc4CCC3)o2)c1OC"
  Cat: "true"
- Chemical smiles: "ClC1=C(c2nnc(-c3ccccc3)o2)CCCc2ccccc21"
  Cat: "true"
- Chemical smiles: "Cc1cc2c(cc1C)C(Cl)=C(c1nnc(-c3cccc(Cl)c3)o1)CCC2"
  Cat: "false"
